# Cond: 370 K; Liquid
Property: vapor or sublimation pressure (kPa)

CCCCCCCCCCCCCCCCCCCCCCCCCCCCCCCCCCCCC = 1.72e-08
CCCCCCCCCCCCCCCCCCCCCCCCCCCCCCCCCCCCCC = 8.6e-09
CCCCCCCCCCCCCCCCCCCCCCCCCCCCCCC = 1.32e-06
CCCCCCCCCCCCCCCCCCCCCCCCCCCCCCCCCC = 1.45e-07
CCCCCCCCCCCCCCCCCCCCCCCCCCCCCCCCC = 3.04e-07

A: CCCCCCCCCCCCCCCCCCCCCCCCCCCCCCCC
B: CCCCCCCCCCCCCCCCCCCCCCCCCCCCCCCCCCCC
C: CCCCCCCCCCCCCCCCCCCCCCCCCCCCCCCCCCC
Qu. # rank by vapor or sublimation pressure, ascending (min first) Answer format: the labels, in the requested order.
Ans. B, C, A

---

# Cond: 330 K; Liquid
Property: vapor or sublimation pressure (kPa)

# count of solved cases: 2
CCCCCCCCCCCCCCCCCCCCCCCCCCCCCCCCC [tritriacontane] = 6.95e-10
CCCCCCCCCCCCCCCCCCCCCCCCCCCCCCC [hentriacontane] = 4.39e-09

a: CCCCCCCCCCCCCCCCCCCCCCCCCCCCCCCCCCCCC [heptatriacontane]
b: CCCCCCCCCCCCCCCCCCCCCCCCCCCCCCCCCCCCCC [octatriacontane]
Qu. Identify the entry with the larger vapor or sublimation pressure. Options: a and b Refer to your chosen entry by its label in the reply.
Ans. a
(a: 1.89e-11 kPa, b: 7.88e-12 kPa)

---

# Cond: 420 K; Liquid
Property: vapor or sublimation pressure (kPa)

1: CCCCCCCCCCCCCCCCCCCCCCCCCCCCCCCCCCCCC
2: CCCCCCCCCCCCCCCCCCCCCCCCCCCCCCCCCCCC
3: CCCCCCCCCCCCCCCCCCCCCCCCCCCCCCCCCC
Qu. Sort ascending by vapor or sublimation pressure. Answer format: the labels, in the requested order.
Ans. 1, 2, 3
(1: 8.43e-06 kPa, 2: 1.48e-05 kPa, 3: 4.34e-05 kPa)

---

# Cond: 350 K; Liquid
Property: vapor or sublimation pressure (kPa)

CCCCCCCCCCCCCCCCCCCCCCCCCCCCCCCCC [tritriacontane] = 1.82e-08
CCCCCCCCCCCCCCCCCCCCCCCCCCCCCCCCCCCCCC [octatriacontane] = 3.38e-10
CCCCCCCCCCCCCCCCCCCCCCCCCCCCCCCCCC [tetratriacontane] = 7.97e-09

a: CCCCCCCCCCCCCCCCCCCCCCCCCCCCCCCCCCCC [hexatriacontane]
b: CCCCCCCCCCCCCCCCCCCCCCCCCCCCCCCC [dotriacontane]
Qu. Identify the entry with the larger vapor or sublimation pressure. Options: a and b Refer to your chosen entry by its label in the reply.
Ans. b

---

# Cond: 500 K; Liquid
Property: vapor or sublimation pressure (kPa)

# count of solved cases: 2
CCCCCCCCCCCCCCCCCCCCCCCCCCCCCCC = 0.0585
CCCCCCCCCCCCCCCCCCCCCCCCCCCCCCCC = 0.0398

A: CCCCCCCCCCCCCCCCCCCCCCCCCCCCCCCCCCC
B: CCCCCCCCCCCCCCCCCCCCCCCCCCCCCCCCCC
Qu. Identify the entry with the larger vapor or sublimation pressure. Options: A and B Refer to your chosen entry by its label in the reply.
Ans. B
(B: 0.0184 kPa, A: 0.0126 kPa)

I: CCCCCCCCCCCCCCCCCCCCCCCCCCCCCCCCC
II: CCCCCCCCCCCCCCCCCCCCCCCCCCCCCCCCCCCCCC
Qu. Please indicate which has the smaller reported vapor or sublimation pressure: I , or II . Refer to your chosen entry by its label in the reply.
Ans. II
(II: 0.00417 kPa, I: 0.0272 kPa)

a: CCCCCCCCCCCCCCCCCCCCCCCCCCCCCCCCCCCCC
b: CCCCCCCCCCCCCCCCCCCCCCCCCCCCCCCCCCCC
Qu. Please indicate which has the smaller reported vapor or sublimation pressure: a , or b . Refer to your chosen entry by its label in the reply.
Ans. a
(a: 0.006 kPa, b: 0.00888 kPa)
